Where do the numbers come from? From paper PMC9849758.

pIC50 values for the molecules below.
- SYSTEM_TESTED: Trypsin-3 (recombinant trypsin-3) (Homo sapiens, UniProt P35030)
- Construct: purchased R&D
- Sequence (P35030 whole entry): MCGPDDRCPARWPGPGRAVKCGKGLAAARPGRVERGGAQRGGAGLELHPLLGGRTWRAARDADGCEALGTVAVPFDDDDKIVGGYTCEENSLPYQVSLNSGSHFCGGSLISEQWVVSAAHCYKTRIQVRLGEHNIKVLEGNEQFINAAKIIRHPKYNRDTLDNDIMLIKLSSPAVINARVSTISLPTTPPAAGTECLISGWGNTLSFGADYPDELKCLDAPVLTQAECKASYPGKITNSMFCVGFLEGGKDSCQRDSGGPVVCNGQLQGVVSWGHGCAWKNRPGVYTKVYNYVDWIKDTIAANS
- RUN_DESCRIPTION: IC50 determination, spectrophotometric protease assay
- Assay type: biochemical
Please keep in mind that pIC50 is minus log10 of the molar concentration; only the number is needed.

Use the examples below as a reference point.
molecule="C[C@@H]1NC(=O)N[C@@H]1CCCCCC(=O)NCCOCCOCCOCCn1cc(CCCOC(=O)NC(Cc2ccc(NC(=N)N)cc2)P(=O)(Oc2ccc(Cl)cc2)Oc2ccc(Cl)cc2)nn1 (stereo partly drawn) [54b]" readout_value=8.10
molecule="C#CCCCOC(=O)NC(CCCNC(=N)N)P(=O)(Oc1ccccc1)Oc1ccccc1 (stereo not drawn) [32b]" readout_value=7.52

Read the next record carefully.
Input line: Reported pIC50, molecule C#CCCCOC(=O)NC(Cc1ccc(N)cc1)P(=O)(Oc1ccc(NC(C)=O)cc1)Oc1ccc(NC(C)=O)cc1 (stereo not drawn) [17b] : ____
Output line: 5.43

###

- SYSTEM_TESTED: uPA (Homo sapiens, UniProt P00749)
- Construct: purchased HYPHEN BioMed
- RUN_DESCRIPTION: Kinetic progress curves (kapp, mechanism)
- Assay type: biochemical
- TEST_PARAMETERS: apparent second-order rate constant from progress curves; mean ± SD
PROPERTY_NAME: uPA kapp

Look over these answered cases.
compound="C[C@@H]1NC(=O)N[C@@H]1CCCCCC(=O)NCCOCCOCCOCCn1cc(CCCOC(=O)NC(c2ccc(NC(=N)N)cc2)P(=O)(Oc2ccc(Cl)cc2)Oc2ccc(Cl)cc2)nn1 (stereo partly drawn) [57b]" readout_value="25 × 10^2 ± 11 M^−1 s^−1"
compound="C#CCCCOC(=O)NC(Cc1ccc(NC(=N)N)cc1)P(=O)(Oc1ccccc1)Oc1ccccc1 (stereo not drawn) [34b]" readout_value="75 × 10^2 ± 725 M^−1 s^−1"

Input line: Please give the measured uPA kapp for this compound: C#CCCCOC(=O)NC(CCCNC(=N)N)P(=O)(Oc1ccc(Cl)cc1)Oc1ccc(Cl)cc1 (stereo not drawn) [33b]
Output line: 15 × 10^2 ± 12 M^−1 s^−1

###

Here the recorded β-tryptase kapp is given for each entry.
- SYSTEM_TESTED: β-tryptase (Homo sapiens, UniProt P20231)
- Sequence (P20231 31-275): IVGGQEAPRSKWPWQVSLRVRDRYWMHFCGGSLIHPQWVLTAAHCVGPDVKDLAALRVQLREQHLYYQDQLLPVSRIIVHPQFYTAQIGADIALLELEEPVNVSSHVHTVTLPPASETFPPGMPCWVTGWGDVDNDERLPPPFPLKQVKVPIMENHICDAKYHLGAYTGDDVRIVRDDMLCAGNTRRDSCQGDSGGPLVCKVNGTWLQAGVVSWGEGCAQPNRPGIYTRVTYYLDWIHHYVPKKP
- RUN_DESCRIPTION: Kinetic progress curves (kapp, K1, KI*, mechanism)
- Format: biochemical
- Parameters: purchased EnzoLife Sciences
- TEST_PARAMETERS: apparent second-order rate constant from progress curves; mean ± SD

compound="C[C@@H]1NC(=O)N[C@@H]1CCCCCC(=O)NCCOCCOCCOCCn1cc(CCCOC(=O)NC(c2ccc(NC(=N)N)cc2)P(=O)(Oc2ccc(Cl)cc2)Oc2ccc(Cl)cc2)nn1 (some centres unmarked) [57b]" property_name="β-tryptase kapp" readout_value="65 × 10^2 ± 1,203 M^−1 s^−1"
compound="C[C@@H]1NC(=O)N[C@@H]1CCCCCC(=O)NCCOCCOCCOCCn1cc(CCCOC(=O)NC(Cc2ccc(NC(=N)N)cc2)P(=O)(Oc2ccccc2)Oc2ccccc2)nn1 (some centres unmarked) [50b]" property_name="β-tryptase kapp" readout_value="32 × 10^2 ± 613 M^−1 s^−1"
compound="C#CCCCOC(=O)NC(c1ccc(NC(=N)N)cc1)P(=O)(Oc1ccc(NC(C)=O)cc1)Oc1ccc(NC(C)=O)cc1 (centres unmarked) [38b]" property_name="β-tryptase kapp" readout_value="20 × 10^2 ± 54 M^−1 s^−1"
compound="CC(=O)Nc1ccc(OP(=O)(Oc2ccc(NC(C)=O)cc2)C(Cc2ccc(NC(=N)N)cc2)NC(=O)OCCCc2cn(CCOCCOCCOCCNC(=O)CCCCC[C@H]3NC(=O)N[C@H]3C)nn2)cc1 (some centres unmarked) [52b]" property_name="β-tryptase kapp" readout_value="18 × 10^3 ± 1184 M^−1 s^−1"
compound="C#CCCCOC(=O)NC(Cc1ccc(NC(=N)N)cc1)P(=O)(Oc1ccc(Cl)cc1)Oc1ccc(Cl)cc1 (centres unmarked) [36b]" property_name="β-tryptase kapp" readout_value="61 × 10^3 ± 6860 M^−1 s^−1"
compound="C#CCCCOC(=O)NC(Cc1ccc(NC(=N)N)cc1)P(=O)(Oc1ccc(NC(C)=O)cc1)Oc1ccc(NC(C)=O)cc1 (centres unmarked) [35b]" property_name="β-tryptase kapp" readout_value="70 × 10^2 ± 582 M^−1 s^−1"

Input line: Bench note: what β-tryptase kapp did C#CCCCOC(=O)NC(CCCNC(=N)N)P(=O)(Oc1ccc(Cl)cc1)Oc1ccc(Cl)cc1 (centres unmarked) [33b] show?
Output line: 28 × 10^2 ± 82 M^−1 s^−1

Input line: Can you share its β-tryptase kapp? I mean this compound: C[C@@H]1NC(=O)N[C@@H]1CCCCCC(=O)NCCOCCOCCOCCn1cc(CCCOC(=O)NC(CCCNC(=N)N)P(=O)(Oc2ccc(Cl)cc2)Oc2ccc(Cl)cc2)nn1 (some centres unmarked) [46b]
Output line: 75 × 10^2 ± 1475 M^−1 s^−1
